target: MDM2 (Homo sapiens, UniProt Q00987); assay: MDM2 binding screen: displacement of fluorescent p53 peptide probe FP53 (fluorescence polarization); conditions: Acid 25; initial screen; crude macrocycle reactions
Sequence (Q00987 whole entry): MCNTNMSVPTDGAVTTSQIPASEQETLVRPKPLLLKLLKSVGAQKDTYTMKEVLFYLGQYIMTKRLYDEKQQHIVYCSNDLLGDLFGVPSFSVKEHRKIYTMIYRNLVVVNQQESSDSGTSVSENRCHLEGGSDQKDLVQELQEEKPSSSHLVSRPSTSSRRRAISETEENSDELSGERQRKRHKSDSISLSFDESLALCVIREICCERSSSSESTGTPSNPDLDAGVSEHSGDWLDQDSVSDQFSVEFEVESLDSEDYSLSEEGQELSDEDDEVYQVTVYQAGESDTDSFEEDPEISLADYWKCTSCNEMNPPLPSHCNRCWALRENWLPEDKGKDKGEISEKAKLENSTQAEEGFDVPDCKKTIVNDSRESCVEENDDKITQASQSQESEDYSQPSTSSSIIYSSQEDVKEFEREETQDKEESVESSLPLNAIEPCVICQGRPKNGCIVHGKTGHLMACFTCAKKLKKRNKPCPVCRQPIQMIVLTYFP
Numbered stars: 1 amine (or outer) side, 2 acyl side, 3 side chain; on linkers, the order of the positions; unused ones are H or OH. Bridge positions count the residues as written; N and C are the ends. Square brackets hold non-standard residues; d marks the D form. Peptide text beside a SMILES is read from it. ξ: configuration not given here. ξPro(4ξ-NHCOC6H4-4-Cl) = O=C(NC1CNC(C(=O)O)C1)c1ccc(Cl)cc1; Cysteamide = C(CS[*:3])N[*:1]; Mpa = O=C(O)CCS
endpoint name: fraction fluorescent probe displaced, Screen

Observe how each entry below is paired with its result.
molecule	quantitative readout
O=C1CCSSCCNC(=O)C2CC(NC(=O)c3ccc(Cl)cc3)CN2C(=O)C2CCCN2C(=O)C(Cc2c[nH]c3ccccc23)N1 (centres unmarked) [X W B1 D5 Acid 25] ([Mpa]WP[ξPro(4ξ-NHCOC6H4-4-Cl)]-Cysteamide; disulfide 1-C; configuration not given here)	0.15
O=C(NC1CC2C(=O)NC(Cc3c[nH]c4ccccc34)C(=O)N3CCCC3C(=O)NCCSSCCC(=O)N2C1)c1ccc(Cl)cc1 (centres unmarked) [X D5 W B1 Acid 25] ([Mpa][ξPro(4ξ-NHCOC6H4-4-Cl)]WP-Cysteamide; disulfide 1-C; configuration not given here)	0.22

(1) O=C1CCSSCCNC(=O)C2CN(C(=O)c3ccc(Cl)cc3)CCN2C(=O)CCNC(=O)[C@H](Cc2ccccc2)N1 (some centres unmarked) [X F B2 D7 Acid 25]
(2) O=C1NC(Cc2c[nH]c3ccccc23)C(=O)N2CCN(C(=O)c3ccc(Cl)cc3)CC2C(=O)NCCSSCCC(=O)N2CCCC1C2 (centres unmarked) [X B4 W D7 Acid 25]
(3) O=C1CCSSCCNC(=O)[C@H](Cc2ccccc2)NC(=O)[C@H](CNC(=O)c2ccc(Cl)cc2)NC(=O)CCN1 [X B2 D3 F Acid 25]
Please order the records by their reported fraction fluorescent probe displaced, Screen, lowest number first. A complete answer lists every label in the requested sequence. 3, 1, 2
(3: 0.0244, 1: 0.12, 2: 0.25)

###

target: MDM2 (Homo sapiens); experiment: MDM2 binding screen of Libraries 3 and 4: displacement of fluorescent probe F-M8 at 750 nM macrocycle; details: Panel b, Library 3: 63 scaffolds combinatorially acylated with 15 carboxylic acids at 30 picomole scale; displacement of fluorescent peptide probe; macrocycle 750 nM
endpoint name: fraction of fluorescent probe displaced

compound	quantitative readout
O=C(/C=C/c1ccc(OCc2ccccc2)cc1)NCCN1CC(=O)N[C@@H](Cc2c[nH]c3ccccc23)C(=O)NCCSSCCC(=O)N2CCO[C@@H](C2)C1=O [X-Cop-N-Aeg-Trp + Acid 110]	0.015
O=C(NC[C@@H]1NC(=O)[C@H]2CCCN(C2)C(=O)CCSSCCNC(=O)[C@H](Cc2ccc3ccccc3c2)NC1=O)c1ccc(Cl)s1 [X-Nip-Dap-2-Nal + Acid 14]	0.015
O=C(/C=C/c1ccc(OCc2ccccc2)cc1)NC[C@H]1NC(=O)C2(CC2)CNC(=O)CCSSCCNC(=O)[C@H](Cc2ccc3ccccc3c2)NC1=O [X-Amcp-D-Dap-2-Nal + Acid 110]	0.028

(I) O=C(/C=C/c1ccc(Cl)cc1)NCCN1CC(=O)N[C@H](Cc2c[nH]c3ccccc23)C(=O)NCCSSCCC(=O)NCC2(CC2)C1=O [X-Amcp-N-Aeg-D-Trp + Acid 108]
(II) O=C1CN(CCNC(=O)c2ccc3ccccc3c2)C(=O)[C@@H]2CN(CCO2)C(=O)CCSSCCNC(=O)[C@H](Cc2c[nH]c3ccccc23)N1 [X-Cop-N-Aeg-Trp + Acid 107]
Given the two records I and II , choose the one whose fraction of fluorescent probe displaced value is lower. Respond using the label that marks the chosen record. II
(II: 0.00455, I: 0.035)

###

target: MDM2 (Homo sapiens, UniProt Q00987); assay: MDM2 binding screen of Libraries 3 and 4: displacement of fluorescent probe F-M8 at 750 nM macrocycle; conditions: Panel b, Library 3: 63 scaffolds combinatorially acylated with 15 carboxylic acids at 30 picomole scale; displacement of fluorescent peptide probe; macrocycle 750 nM
endpoint name: fraction of fluorescent probe displaced

Example compounds with recorded fraction of fluorescent probe displaced:
compound	quantitative readout
Cn1cc(C[C@@H]2NC(=O)[C@H](CNC(=O)C3COc4ccccc4O3)NC(=O)[C@H]3CCCN(C3)C(=O)CCSSCCNC2=O)c2ccccc21 (stereo partly drawn)	0.028
O=C(O)CCS(=O)(=O)c1ccccc1	0.035
O=C(O)/C=C/c1ccc(OCc2ccccc2)cc1	0.035
O=C(CCS(=O)(=O)c1ccccc1)NCCN1CC(=O)N[C@@H](Cc2c[nH]c3ccccc23)C(=O)NCCSSCCC(=O)N2CCC[C@@H](C2)C1=O	0.035
O=C(/C=C/c1ccc2ccccc2c1)NC[C@H]1NC(=O)[C@H]2CCCN(C2)C(=O)CCSSCCNC(=O)[C@@H](Cc2c[nH]c3ccccc23)NC1=O	0.075

(a) O=C1CN(CCNC(=O)c2ccc(Cl)cc2)C(=O)[C@@H]2CN(CCO2)C(=O)CCSSCCNC(=O)[C@H](Cc2ccc3ccccc3c2)N1
(b) O=C1CCSSCCNC(=O)[C@H](Cc2cccc3ccccc23)NC(=O)[C@H](CNC(=O)c2ccc(Cl)s2)NC(=O)C2(CC2)CN1
Short answer wanted: higher fraction of fluorescent probe displaced, a or b ? State your choice using its label. a
(a: 0.00133, b: -0.019)

(a) O=C(/C=C/c1ccc2ccccc2c1)NCCN1CC(=O)N[C@H](Cc2c[nH]c3ccccc23)C(=O)NCCSSCCC(=O)NCC2(CC2)C1=O
(b) O=C1CN(CCNC(=O)c2ccc(Cl)s2)C(=O)[C@@H]2CN(CCO2)C(=O)CCSSCCNC(=O)[C@H](Cc2cccc3ccccc23)N1
(c) O=C(NC[C@@H]1NC(=O)[C@H]2CCCN(C2)C(=O)CCSSCCNC(=O)[C@@H](Cc2c[nH]c3ccccc23)NC1=O)c1ccc(Cl)s1
(d) O=C(/C=C/c1ccc2ccccc2c1)NCCN1CC(=O)N[C@@H](Cc2c[nH]c3ccccc23)C(=O)NCCSSCCC(=O)NCC2(CC2)C1=O
(e) O=C(/C=C/c1ccc(OCc2ccccc2)cc1)NC[C@@H]1NC(=O)[C@H]2CCCN(C2)C(=O)CCSSCCNC(=O)[C@H](Cc2ccc3ccccc3c2)NC1=O
// sort entries: fraction of fluorescent probe displaced, high to low Would you mind listing the labels in the order requested? d, e, a, b, c
(d: 0.041, e: 0.021, a: 0.008, b: -0.025, c: -0.172)

###

molecular target: UniProtKB Q00987; experiment: MDM2 binding screen of Libraries 3 and 4: displacement of fluorescent probe F-M8 at 750 nM macrocycle; conditions: Panel b, Library 3: 63 scaffolds combinatorially acylated with 15 carboxylic acids at 30 picomole scale; displacement of fluorescent peptide probe; macrocycle 750 nM
endpoint name: fraction of fluorescent probe displaced

compound	fraction of fluorescent probe displaced
O=C(NCC1NC(=O)C2CN(CCO2)C(=O)CCSSCCNC(=O)C(Cc2ccc3ccccc3c2)NC1=O)c1cccc(Oc2ccccc2)c1 (stereo not drawn) [X-Cop-Dap-2-Nal + Acid 111]	0.008
O=C1CCSSCCNC(=O)[C@H](Cc2ccc3ccccc3c2)NC(=O)[C@@H](CNC(=O)c2ccc(Cl)cc2)NC(=O)C2(CC2)CN1 [X-Amcp-D-Dap-2-Nal + Acid 25]	-0.019

(I) O=C(/C=C/c1ccc2ccccc2c1)NC[C@H]1NC(=O)[C@H]2CCCN(C2)C(=O)CCSSCCNC(=O)[C@H](Cc2cccc3ccccc23)NC1=O [X-Nip-D-Dap-1-NaI + Acid 112]
(II) O=C(/C=C/c1ccc2ccccc2c1)NC[C@H]1NC(=O)C2(CC2)CNC(=O)CCSSCCNC(=O)[C@H](Cc2c[nH]c3ccccc23)NC1=O [X-Amcp-D-Dap-Trp + Acid 112]
(III) CN1C(=O)[C@H](CNC(=O)c2ccc(Cl)s2)NC(=O)C2(CC2)CNC(=O)CCSSCCNC(=O)[C@@H]1Cc1c[nH]c2ccccc12 [X-Amcp-Dap-NMe-Trp + Acid 14]
Ascending by fraction of fluorescent probe displaced, please. Put the labels in the order asked and list them. III, II, I

###

biological target: thrombin (Homo sapiens, UniProt P00734); construct: consists of two polypeptide chains of 36 (light chain) and 259 amino acid; assay: Thrombin inhibition screen of crude macrocycle reactions (residual thrombin activity, fluorogenic substrate Z-Gly-Gly-Arg-AMC); assay type: biochemical; conditions: 10 µM macrocycle concentration; macrocycles containing acid 14; crude reaction; replicate reaction and screen
endpoint name: % thrombin activity, Repeat screen (%)

(A) CC(C)[C@H]1NC(=O)C2(CCN(C(=O)c3ccc(Cl)s3)CC2)NC(=O)CCSSCCNC(=O)c2cccc(c2)CNC1=O
(B) O=C1CCSSCCNC(=O)[C@H](CNC(=O)c2ccc(Cl)s2)NC(=O)[C@@H](Cc2ccccc2)NC(=O)C2(CC2)CN1
(C) CCC(C)C1NC(=O)C(CNC(=O)c2ccc(Cl)s2)NC(=O)C2CCCN(C2)C(=O)CCSSCCNC1=O (centres unmarked)
Which order do these fall in by % thrombin activity, Repeat screen? Give them lowest to highest. Provide the ranking by listing each label in its place in the requested order. B, C, A

(A) CCC(C)C1NC(=O)C(CCCCNC(=O)c2ccc(Cl)s2)NC(=O)CCSSCCNC(=O)C2(CC2)CNC1=O (centres unmarked) [X D1 I B6]
(B) CC(C)C[C@@H]1NC(=O)C2(CC2)CNC(=O)CCSSCCNC(=O)[C@H](CCCNC(=O)c2ccc(Cl)s2)NC1=O [X B6 L D2]
Of the pair A and B , name the member with the lesser recorded % thrombin activity, Repeat screen. Write down the label of the entry you select. B
(B: 43.4%, A: 93.6%)
